- Tested on: Candida albicans
- assay.notes: Antifungal activity against fluconazole-resistant Candida albicans DSY348 harboring ERG11 gene mutant and increase expressing of CDR1 and CDR2 genes after 24 hrs by visually and spectrophotometric analysis
- Type: functional
- condition.label: DSY348, 24 h
readout.type: MIC90 (µg/mL)
Please state the figure in µg/mL; there is no need to write the unit.

Query: Dear colleague, I am looking for the recorded MIC90 of the following molecule: C=CCNC(=N)NCCCCCCCCN1CCCCCCCCNC(=N)NC1=O.O=C(O)C(F)(F)F
Response: 1

Query: What do you get for OC(Cn1cncn1)(Cn1cncn1)c1ccc(F)cc1F [FLUCONAZOLE] ?
Response: 32

----------
- System: Candida albicans
- assay.notes: Antifungal activity against wild type Candida albicans ATCC 60193 after 24 hrs by visually and spectrophotometric analysis
- Type: functional
- condition.label: ATCC 60193, 24 h
Entries and their log10 of MIC90 values follow.
// do not treat as linear: log10 of MIC90, unit mg/L

Guide cases for log10 of MIC90, answers given:
compound | log10 of MIC90
C/C=C/CNC(=N)NCCCCCCCCN1CCCCCCOc2ccccc2CNC(=N)NC1=O.O=C(O)C(F)(F)F | 0.60
C=CCNC(=N)NCCCCCCCCN1CCCCCCCCNC(=N)NC1=O.O=C(O)C(F)(F)F | 0.00

Query: Dear colleague, I am looking for the recorded log10 of MIC90 of the following compound: C/C=C/CNC(=N)NCCCCCCCCN1CCCCCOc2ccccc2CNC(=N)NC1=O.O=C(O)C(F)(F)F
Response: 0.60

Query: What do you get for C/C=C/CNC(=N)NCCCCCCCCN1CCCCOC(=O)CCNC(=N)NC1=O.O=C(O)C(F)(F)F ?
Response: 1.51

Query: What do you get for N=C(NCCCCCCCCN1CCCCCCCCNC(=N)NC1=O)NCC1CC1.O=C(O)C(F)(F)F ?
Response: 0.00

Query: What do you get for C/C=C/CNC(=N)NCCCCCCCCN1CCCCCOC(=O)CCNC(=N)NC1=O.O=C(O)C(F)(F)F ?
Response: 1.20

Query: What do you get for OC(Cn1cncn1)(Cn1cncn1)c1ccc(F)cc1F [FLUCONAZOLE] ?
Response: 0.30

Query: What do you get for C/C=C/CNC(=N)NCCCCCCCCN1CCCCOc2ccccc2CNC(=N)NC1=O.O=C(O)C(F)(F)F ?
Response: 1.20

----------
Entries and their MIC90 values follow.
- Tested on: Candida albicans
- assay.notes: Antifungal activity against fluconazole-resistant Candida albicans DSY296 harboring ERG11 gene mutant and increase expressing of CDR1 and CDR2 genes after 24 hrs by visually and spectrophotometric analysis
- Format: functional
- condition.label: DSY296, 24 h
Please state the figure in µg/mL; there is no need to write the unit.

compound | MIC90 (µg/mL)
C=CCNC(=N)NCCCCCCCCN1CCCCCCCCNC(=N)NC1=O.O=C(O)C(F)(F)F | 2
C/C=C/CNC(=N)NCCCCCCCCN1CCCCCCOc2ccccc2CNC(=N)NC1=O.O=C(O)C(F)(F)F | 10
OC(Cn1cncn1)(Cn1cncn1)c1ccc(F)cc1F [FLUCONAZOLE] | 128
C/C=C/CNC(=N)NCCCCCCCCN1CCCCOc2ccccc2CNC(=N)NC1=O.O=C(O)C(F)(F)F | 16
C/C=C/CNC(=N)NCCCCCCCCN1CCCCCOC(=O)CCNC(=N)NC1=O.O=C(O)C(F)(F)F | 16
C/C=C/CNC(=N)NCCCCCCCCN1CCCCOC(=O)CCNC(=N)NC1=O.O=C(O)C(F)(F)F | 16
C[C@@H](c1ncncc1F)[C@](O)(Cn1cncn1)c1ccc(F)cc1F [VORICONAZOLE] | 8
N=C(NCCCCCCCCN1CCCCCCCCNC(=N)NC1=O)NCC1CC1.O=C(O)C(F)(F)F | 2

Query: Dear colleague, I am looking for the recorded MIC90 of the following compound: C/C=C/CNC(=N)NCCCCCCCCN1CCCCCOc2ccccc2CNC(=N)NC1=O.O=C(O)C(F)(F)F
Response: 4

----------
- Test system: Candida albicans
- assay.notes: Antifungal activity against fluconazole-resistant Candida albicans DSY284 harboring ERG11 gene mutant and increase expressing of CDR1 and CDR2 genes after 24 hrs by visually and spectrophotometric analysis
- Assay type: functional
- condition.label: DSY284, 24 h
readout.type: MIC90 (µg/mL)
Please state the figure in µg/mL; there is no need to write the unit.

Guide cases for MIC90, answers given:
smiles.string | MIC90, µg/mL
C/C=C/CNC(=N)NCCCCCCCCN1CCCCOc2ccccc2CNC(=N)NC1=O.O=C(O)C(F)(F)F | 16
C/C=C/CNC(=N)NCCCCCCCCN1CCCCCOc2ccccc2CNC(=N)NC1=O.O=C(O)C(F)(F)F | 2
C[C@@H](c1ncncc1F)[C@](O)(Cn1cncn1)c1ccc(F)cc1F | 4
C/C=C/CNC(=N)NCCCCCCCCN1CCCCCOC(=O)CCNC(=N)NC1=O.O=C(O)C(F)(F)F | 8
OC(Cn1cncn1)(Cn1cncn1)c1ccc(F)cc1F | 256

Query: // map N=C(NCCCCCCCCN1CCCCCCCCNC(=N)NC1=O)NCC1CC1.O=C(O)C(F)(F)F to recorded MIC90 (system: Candida albicans)
Response: 1

Query: What do you get for C/C=C/CNC(=N)NCCCCCCCCN1CCCCCCOc2ccccc2CNC(=N)NC1=O.O=C(O)C(F)(F)F ?
Response: 9

Query: What do you get for C/C=C/CNC(=N)NCCCCCCCCN1CCCCOC(=O)CCNC(=N)NC1=O.O=C(O)C(F)(F)F ?
Response: 16

Query: What do you get for C=CCNC(=N)NCCCCCCCCN1CCCCCCCCNC(=N)NC1=O.O=C(O)C(F)(F)F ?
Response: 1

----------
- Test system: Nakaseomyces glabratus
- assay.notes: Antifungal activity against fluconazole-resistant Candida glabrata DSY2254 increase expressing of CgCDR1 and CgCDR2 genes after 24 hrs by visually and spectrophotometric analysis
- Format: functional
- condition.label: DSY2254, 24 h
readout.type: MIC90 (µg/mL)
Please state the figure in µg/mL; there is no need to write the unit.

smiles.string | readout.type | display.unit | test.value
OC(Cn1cncn1)(Cn1cncn1)c1ccc(F)cc1F | MIC90 | µg/mL | 128
C/C=C/CNC(=N)NCCCCCCCCN1CCCCCCOc2ccccc2CNC(=N)NC1=O.O=C(O)C(F)(F)F | MIC90 | µg/mL | 40
N=C(NCCCCCCCCN1CCCCCCCCNC(=N)NC1=O)NCC1CC1.O=C(O)C(F)(F)F | MIC90 | µg/mL | 32

Query: Dear colleague, I am looking for the recorded MIC90 of the following molecule: C=CCNC(=N)NCCCCCCCCN1CCCCCCCCNC(=N)NC1=O.O=C(O)C(F)(F)F
Response: 32

Query: What do you get for C/C=C/CNC(=N)NCCCCCCCCN1CCCCCOC(=O)CCNC(=N)NC1=O.O=C(O)C(F)(F)F ?
Response: 64

Query: What do you get for C[C@@H](c1ncncc1F)[C@](O)(Cn1cncn1)c1ccc(F)cc1F ?
Response: 2

Query: What do you get for C/C=C/CNC(=N)NCCCCCCCCN1CCCCOc2ccccc2CNC(=N)NC1=O.O=C(O)C(F)(F)F ?
Response: 64

Query: What do you get for C/C=C/CNC(=N)NCCCCCCCCN1CCCCOC(=O)CCNC(=N)NC1=O.O=C(O)C(F)(F)F ?
Response: 128

Query: What do you get for C/C=C/CNC(=N)NCCCCCCCCN1CCCCCOc2ccccc2CNC(=N)NC1=O.O=C(O)C(F)(F)F ?
Response: 16

----------
- System: Clavispora lusitaniae
- assay.notes: Antifungal activity against Candida lusitaniae ATCC 24348 after 24 hrs by visually and spectrophotometric analysis
- Assay type: functional
- condition.label: ATCC 24348, 24 h
The label MET is reserved for MIC90 strictly under 2 µg/mL; NOT MET covers values equal to or above it.

Sample answers from the record:
compound | answer.label
C[C@@H]1[C@H](O)[C@@H](C)/C=C/C=C/C=C/C=C/C=C/C=C/C=C/[C@H](O[C@@H]2O[C@H](C)[C@@H](O)[C@H](N)[C@@H]2O)C[C@@H]2O[C@](O)(C[C@@H](O)C[C@@H](O)[C@H](O)CC[C@@H](O)C[C@@H](O)CC(=O)O[C@H]1C)C[C@H](O)[C@H]2C(=O)O [AMPHOTERICIN B] | MET
C/C=C/CNC(=N)NCCCCCCCCN1CCCCCCOc2ccccc2CNC(=N)NC1=O.O=C(O)C(F)(F)F | NOT MET
C/C=C/CNC(=N)NCCCCCCCCN1CCCCOc2ccccc2CNC(=N)NC1=O.O=C(O)C(F)(F)F | NOT MET
C/C=C/CNC(=N)NCCCCCCCCN1CCCCCOC(=O)CCNC(=N)NC1=O.O=C(O)C(F)(F)F | NOT MET
C=CCNC(=N)NCCCCCCCCN1CCCCCCCCNC(=N)NC1=O.O=C(O)C(F)(F)F | MET

Kindly review the next compound as well.
Query: Please indicate whether the reported MIC90 of C/C=C/CNC(=N)NCCCCCCCCN1CCCCOC(=O)CCNC(=N)NC1=O.O=C(O)C(F)(F)F is strictly below 2 µg/mL.
Response: NOT MET
